- measured on: Proteasome subunit beta (Trypanosoma cruzi)
- assay summary: Trypanosoma cruzi proteasome chymotrypsin-like activity (TcProtChymo) assay. Further: in the data most compounds retested in dose-response had high values.
- Type: functional
- Parameters: scale not given: direction of the effect not stated beside the values
- experimental context: 9.37 µM
endpoint label: Percent Effect (%)
Enter your answer as a number in %; do not include the unit.

# count of solved cases: 4
compound: CC(C)C(C(=O)N1CCCN(Cc2cnn(C)c2)CC1)n1cncn1 (centres undefined)
measured on: Proteasome subunit beta (Trypanosoma cruzi)
Percent Effect (%): 7.82
//
compound: CC(O)CN1CCC(CNCc2cccc(C(N)=O)c2)CC1 (centres undefined)
measured on: Proteasome subunit beta (Trypanosoma cruzi)
Percent Effect (%): 6.67
//
compound: CCc1nc(C2CCCN2CCCS(=O)(=O)c2ccccc2)no1 (centres undefined)
measured on: Proteasome subunit beta (Trypanosoma cruzi)
Percent Effect (%): 13.1
//
compound: Cc1cccc(CN2C[C@@H]3COC[C@]3(CNC(=O)c3ccsc3)C2)n1
measured on: Proteasome subunit beta (Trypanosoma cruzi)
Percent Effect (%): 22.3

Would you kindly share the measured Percent Effect for C1CCCN(c2nc(C3CC3)ns2)CC1 ?
12.2

Query: Percent Effect; subject: Cc1oc(-c2ccco2)nc1CC(=O)N1CCC(C(O)C(F)(F)F)CC1 (centres undefined)
-5.58

Requested field: Percent Effect. Item: O=C(c1ccco1)N1C[C@H]2CCCN(Cc3cccs3)[C@H]2C1
15.1

Requested read-out: Percent Effect. Entry: CN(C)c1cc(C(=O)N2CCN(S(C)(=O)=O)CC2)ccn1
6.23

Which measured Percent Effect value corresponds to COCc1nn(C(C)C)c2c1CCN(Cc1cccs1)C2 ?
12.4

Need Percent Effect of CNc1cc2c(nn1)CCN(C(=O)c1ccoc1)C2 , thanks.
16.6

Quick check: Percent Effect of CC(O)CN1CCC(CNCc2cccc(OC(C)C)c2)CC1 (centres undefined) ?
1.26

For CC(C)c1cccc(CSc2nnc(CN3CCCC3=O)o2)n1 , what is its reported Percent Effect?
-0.174

Percent Effect for CCN(CC(=O)NC)C(=O)Cc1nc(-c2ccco2)oc1C ?
16.9

Find the recorded Percent Effect belonging to Cc1cccnc1NC(=O)CSc1ccc2c(c1)OCCO2 and report it.
8.42

----------
- measured on: Sialic acid-binding Ig-like lectin 9 (Homo sapiens) (UniProt Q9Y336)
- Sequence (Q9Y336 whole entry): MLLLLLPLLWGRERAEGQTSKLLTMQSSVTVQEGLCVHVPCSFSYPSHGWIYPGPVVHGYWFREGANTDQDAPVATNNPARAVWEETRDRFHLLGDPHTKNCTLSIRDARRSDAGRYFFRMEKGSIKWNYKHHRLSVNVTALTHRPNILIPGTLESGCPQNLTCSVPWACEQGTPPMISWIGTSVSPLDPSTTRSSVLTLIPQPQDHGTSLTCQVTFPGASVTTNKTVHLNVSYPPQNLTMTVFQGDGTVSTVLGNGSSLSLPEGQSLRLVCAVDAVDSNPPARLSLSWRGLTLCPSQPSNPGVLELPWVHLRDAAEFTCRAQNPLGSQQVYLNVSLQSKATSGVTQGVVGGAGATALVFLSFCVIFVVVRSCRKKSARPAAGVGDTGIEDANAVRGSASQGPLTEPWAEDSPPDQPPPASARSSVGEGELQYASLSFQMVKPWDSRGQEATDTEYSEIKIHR
- assay summary: Hs-Siglec9 ALPHAscreen SOP 20170721
- Design: scale not given: direction of the effect not stated beside the values
- experimental context: 10 µM
endpoint label: Percent Effect (%)
Dear colleague, please return just the value in %, with no unit written.

Consider the reported Percent Effect for these compounds:
compound: Cn1cnc2c1C(COCc1ccccc1)N(Cc1ccncc1)CC2 (stereo unspecified)
measured on: Sialic acid-binding Ig-like lectin 9 (Homo sapiens) (UniProt Q9Y336)
Percent Effect, %: 11.9
--
compound: COCCNC(=O)[C@H]1CN(c2nnc(C)s2)C[C@H]2OCC[C@@H]12
measured on: Sialic acid-binding Ig-like lectin 9 (Homo sapiens) (UniProt Q9Y336)
Percent Effect, %: 0.154
--
compound: Cc1cnn(C2CN(Cc3ccc4c(c3)OCCO4)C2)c1
measured on: Sialic acid-binding Ig-like lectin 9 (Homo sapiens) (UniProt Q9Y336)
Percent Effect, %: 1.34
--
compound: Cc1ccc(N2CCC3(CCN(C(N)=O)CC3)CC2)nn1
measured on: Sialic acid-binding Ig-like lectin 9 (Homo sapiens) (UniProt Q9Y336)
Percent Effect, %: -5.12
--
compound: O=C(Nc1ccc(CCN2CCC(O)CC2)cc1)Nc1cccnc1
measured on: Sialic acid-binding Ig-like lectin 9 (Homo sapiens) (UniProt Q9Y336)
Percent Effect, %: 8.33

May I ask what Percent Effect has been recorded for CN1CCN(c2ncnc3c2c(C(=O)NC2CC2)c2ccccn23)CC1 ?
1.78

Quick one: Percent Effect for COc1c(C2CCCN2CC(=O)Nc2cc(C)no2)c(C)nn1C (stereo unspecified) ?
4.82

So what does the record say about Percent Effect for CCC(=O)N1CCC2(COCc3c(C)nc(N(C)C)nc32)C1 (stereo unspecified) ?
16.9

I am curious: what Percent Effect value has been reported for CC(C)(C)c1nnc(CN2CCN(S(C)(=O)=O)CC2)o1 ?
19.5

# lookup: Percent Effect of O=C(CC1CC1)N1CCn2cc(Cn3cncn3)nc2C1
3.11

Need Percent Effect, item O=C(NCC1CC1)[C@H]1C[C@H]2OCC[C@H]2N(Cc2ccsc2)C1
-0.139
